Measured values drawn from PubChem BioAssay (NCATS) for this set.

System: Nanoluciferase (engineered Oplophorus gracilirostris luciferase)
assay comment: Primary Nanoluciferase (NLuc) qHTS assay for identification of artifact compounds. (AID 1845222);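 note: NLuc secreted into diluted conditioned medium of S16 cells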
applied conditions: NLuc-conditioned medium, Nano-Glo luminescence, 5 min; series mostly up to 54.1 µM
Calls of active or inactive are those of the source. Calls come from the whole dose curve; as a rule, active = well fitted inhibition curve with a large enough effect; inconclusive = small, poorly fitted or top-dose-only effect; inactive = flat fitted curve, though single readings scatter.
assay metric: activity, negative = inhibition

Some compounds with known activity, negative = inhibition results, for comparison:
COC(=O)C12C(=O)C(C)(O)C(=O)C1(C)C(C)=CC1C34CCC(OC3=O)C(C)(CO)C4CCC12C (stereo unspecified)    inactive
C/C=C(\C)C(=O)OC1CC2C(C)(C)OC(=O)CC(OC(C)=O)C2(C)C2CC(OC(=O)C(C)C)C3(C)C(c4ccoc4)CC4OC43C12C (stereo unspecified)    inactive
CN(C)CCc1c[nH]c2ccc(CN3CCN(C)S3(=O)=O)cc12    inactive
COC1C(O)C(C)OC(OC2C(CO)O[C@@H](O[C@@H]3CC4CCC5C(CC[C@]6(C)[C@@H](C7=CC(=O)OC7)CC[C@]56O)[C@@]4(C)[C@H](O)C3)C(O)C2O)C1O (stereo partly specified)    inactive
C[C@H](NC(=O)Cc1cc(F)cc(F)c1)C(=O)N[C@@H]1N=C(c2ccccc2)c2ccccc2N(C)C1=O    inactive

Given the entry CN(C(=O)Cc1ccccc1)C(CN1CCCC1)c1ccccc1 (stereo unspecified) , report its measured activity, negative = inhibition.
inactive

Given the entry O=C(N1CCOCC1)N1CCN(c2ccc(Cl)cc2)CC1 , report its measured activity, negative = inhibition.
inactive

Given the entry CC(C)=C1CC[C@]23CO[C@H](C2)[C@@](O)(C(=O)O)CCC13 (stereo partly specified) , report its measured activity, negative = inhibition.
inactive

Given the entry COc1cc2c(cc1OC)[C@@]13CCN4CC5=CCO[C@H]6CC(=O)N2[C@H]1[C@H]6[C@H]5C[C@H]43 , report its measured activity, negative = inhibition.
inactive

Given the entry C[C@@]12C[C@@H](c3ccoc3)OC(=O)C1CC[C@]1(C)[C@H]2[C@H]2C=C[C@]1(O)C(=O)O2 (stereo partly specified) , report its measured activity, negative = inhibition.
inactive

Given the entry CCN1C[C@]2(OC(=O)c3ccccc3NC(C)=O)CC[C@H](OC)[C@@]34[C@@H]2C[C@@H]([C@@H]13)[C@@]1(O)C[C@H](OC)[C@H]2C[C@@H]4[C@]1(O)[C@H]2OC , report its measured activity, negative = inhibition.
inactive

Given the entry COC1CC(OC2CCC3(C=O)C(CCC4C3CCC3(C)C(C5=CC(=O)OC5)CCC43O)C2)OC(C)C1OC1OC(CO)C(O)C(O)C1O (stereo unspecified) , report its measured activity, negative = inhibition.
inactive

Given the entry COC(=O)[C@@]12C(=O)C(C)C(=O)[C@]1(C)C(C)=C[C@H]1[C@]3(C=O)CC[C@H](OC(C)=O)C(C)(C)[C@H]3CC[C@@]12C (stereo partly specified) , report its measured activity, negative = inhibition.
inactive

Given the entry COC1=CC(=O)O[C@@H](/C=C/c2ccccc2)C1 , report its measured activity, negative = inhibition.
inactive

Given the entry CC(CCc1ccc(O)cc1)O[C@@H]1O[C@H](CO[C@H]2OC[C@](O)(CO)[C@H]2O)[C@@H](O)[C@H](O)[C@H]1O (stereo partly specified) , report its measured activity, negative = inhibition.
inactive

Given the entry CCC(C)(C#N)O[C@@H]1O[C@H](CO)[C@@H](O)[C@H](O)[C@H]1O (stereo partly specified) , report its measured activity, negative = inhibition.
inactive
